Biological target: Cdk2(S181C) (C177A) (Homo sapiens, UniProt P24941, C177A/S181C)
Construct: poly-histidine; made in house; host or cells: E. coli
Experiment: Kinetic thiol consumption assay with Cdk2 mutant S181C
Assay type: binding
Parameters: key: rate constant with Cdk2 ÷ rate constant with model thiol (fold)
Conditions: Cdk2 S181C, additional mutation C177A
Readout Name: Rate enhancement, Cdk2 S181C
Could you respond with only the numeric value?

Here are 3 compounds together with their reported answers.
C=CC(=O)N1CCCc2cc(C(=O)OC)ccc21 ... 0.5036
C=CC(=O)Nc1cccc(C(F)(F)F)c1 [EL-1007] ... 0.487
C=CC(=O)NCc1ccc(C(=O)OC)cc1 ... 0.5182

Q: Give Rate enhancement, Cdk2 S181C for C=CC(=O)N(C(=O)C=C)c1c2ccccc2n2c(C)nc3ccccc3c12
A: 0.9118

Q: Give Rate enhancement, Cdk2 S181C for C=CC(=O)Nc1[nH]nc(C2CC2)c1-c1ccc2c(c1)OCO2
A: 0.005756

Q: Give Rate enhancement, Cdk2 S181C for C=CC(=O)N1CCN(C(=O)OCC)CC1c1cccs1 (centres unmarked)
A: 1.051

Q: Give Rate enhancement, Cdk2 S181C for C=CC(=O)N1CCn2cccc2C1c1ccccc1 (centres unmarked)
A: 0.2036

Q: Give Rate enhancement, Cdk2 S181C for C=CC(=O)N1CCC2(CCCCCC2)C1
A: 0.776
